experiment: yeast display, Sf9 membrane polyspecificity reagent, FACS + sequencing; frameworks hold sequencing errors
PROPERTY_MEASURED: polyreactivity (PSR sort gate)

QVQLVESGGGLVQAGGSLRLSCAASGRIFYWYAMGWYRQAPGKERELVATINSGGSTTYADSVKARFTISRDNAKNTVYLQMNSLKPEDTAVYYCARQRTVKKYYNWGQGTQVTVSS ... high polyreactivity
QVQLEESGGGLLQAGGSLRLSCAATGSTFVTYAMGWYRQAPGKERELVAAISSGGGNTYYADSVKGRFTISRDNAMNSVYLQMHSLKPEDTAVYLCAADNPRSEYDYWGQGTQVTVSA ... high polyreactivity
QVQVVESGGGLVQAGGSLRLSCAASGSTFVRNAMGWYRQAPGKDRELVAAITTSGARTYYADSVKGRFTISRDNAKHTVYLQMNSLKPEDTAVYYCAAEYKGRTYRFDYWGQGTQVTVSS ... low polyreactivity
QVQLVESGGGLVQAGGSLRLSCAASGRIFRAYVMGWYRQAPGKEREYVAAITRSGGSTYYADSVKGRFTISRDNAKNTVYLQMNSLKPEDTAVYYCAAPVYLYGTVGRGDYWGQGTQVTVSS ... high polyreactivity
QVQLVESGGGLVQAGGSLRLSCAASGSIFSYYTMGWYRQAPGTERELVAASTRGGRTSYADSVKGRFTISRDNAKNTVYLQMNSLKPEDTAVYYCAADYWYFTHQLSTYGDNYWGQGTQVTVSS ... low polyreactivity
QVQLVESGGGLVQEGGSLRLSCAASGLIFGRYAMGWYRQAPGKERELVAAISSSGVRTYYADSVKGRFTISRDNAKNTVYLQMNSLKPEDTAVYYCAAAYWSSRDDTVIKRYYWGQGTQVTVSS ... high polyreactivity
QVQLVESGGGLVQAGGSLRLSCAASGLIFEGYAMGWYRQAPGKERELVAAISSAGSTYYADSVKGRFTISRDNAKNTVYLQMNSLKPEDTAVYYCNARRRRLVSYYYWGQGTQVTVSS ... high polyreactivity
QVQLVESGGGLVQAGGSLRLRCAASGRIFSTYAMGWYRQAPGKERALVAAINKIGGSTYYADSVKGRFTISRDNAKNTVYLQMNSLKPEDTAVYYCAADAPFYPVRRYYYWGQGTQVTVSS ... low polyreactivity

[in] Value lookup for polyreactivity (PSR sort gate); key = QVQLVESGGGLVQAGGSLRLSCAASGRTFWFNHMGSYRQAPGKERELVAAITWNGGSTYYADSVKGRFTISRDNAKNTVYLQMNSLKPEATAVYYCARTSYARYRNGWTYDHWGQGTQVTVSS
[out] low polyreactivity

[in] Value lookup for polyreactivity (PSR sort gate); key = QVQLVESGGGLVQAGGSLRLSCAAYGRTFLFYAMGWYIQAPGKERELVAAITRSDGSTYYADSVKGRFTISRDNAKNTVYLQMNSLKPEDTAVYYCAAEYVSILRDYDYWGQGTQVTVSS
[out] low polyreactivity

[in] Value lookup for polyreactivity (PSR sort gate); key = QVQLVESGGGLVQAGGSLRLSCAASGMILGVNVMGWYRQAPGKERELVAAISGGGRTYYADSVKGRFTISRDNAKNTVYLLMNSLKPEDTAVYYCAARVYSLGYGGDYWGQGTHVTVSS
[out] high polyreactivity

* * *

assay: yeast display, Sf9 membrane polyspecificity reagent, FACS + sequencing; frameworks hold sequencing errors
PROPERTY_MEASURED: polyreactivity (PSR sort gate)

QVQLVESGGGLVQAGGSLRLSCAASGFIFSYNAMRWYRQAPGKERELTYADSVKGRFTISRDNAKNTVYLQMNSLKPEDTAVYFCAAGEYGRQYDGDYWGQATQVTVSS ... low polyreactivity
QVQLVESGGGLVQAGGSLRLSCAASGRIFVVNDMGWYRQAPGKERELVAAINSGGRTNYADSVKGRFTISRDNAKNTVYLQMNSLKPEDTAVYYCNAKRTGPWFLHVPVYYWGQGTQVTVSS ... low polyreactivity

* * *

assay: yeast display, Sf9 membrane polyspecificity reagent, FACS + sequencing; frameworks hold sequencing errors
PROPERTY_MEASURED: polyreactivity (PSR sort gate)

Use the examples below as a reference point.
QVQLVESGGGLVQAGGSLRLSCAASGFTFGRYAMGWYRQAPGKERELVATITRTGSTNYADSVKGRFTISRDNAKNTVYLQMNSLKPEDTAVYYCNAGPDRRVSYYRLLDHWGQGTQVTASS ... low polyreactivity
QVQLVESGRGLFQAGGRLRLSCAASGRIFSFYAMGWSRQAPGKERELVASITSGGITNYADSVKGRFTISRDNAKNTVYLQMNSLKPEDTAVYYCNAANPYRRVGSFTYKYDYWGQGTQVTVSS ... low polyreactivity
QVQLVESGGGLDQARGSLRLSCAASGSTFKSYVMGWYRQAPGKVRELVAAISQSGGNTNYADSVKGRFTISRDNAKNTVYLQMNSLKPEDTAVDYCAADVLGTTTTVGGFNYWGQGTQVTVSS ... low polyreactivity
QVQLVESGGGLVQAGGSLRLSCAASGITFGNYAMGWYRQAPGKEREFVAAISQSYGRTYYADSVKGRFTISRDNAKNTVYLQMNSLKPEDTAVYYCAARTRGSSRGDYDYWGQGTQVTVSS ... high polyreactivity
QVQLVESGGGLVQAGGSLRLSCAASGYIFEDYAMGWYRQAPGKERELVASIDSGSTTNYADSVKGRFTISRDNAKNTVYLQMNSLKPEDTAVYYCAADSYVSPEVRFDYWGQGTQVTVSS ... low polyreactivity

[in] Value lookup for polyreactivity (PSR sort gate); key = QVQLVESGGGLVHAGGSLRLSCAPSGRTFPRYAMGWYRQAPGKERELVAAISVRAGITYYADSVKGRFTISRDNAKNTVYLQMNSLKPEDTAVYYCDKEHSSTSYDEGDYWGQGTQVTVSS
[out] low polyreactivity

[in] Value lookup for polyreactivity (PSR sort gate); key = QVQLVESGGGLVQAGCSLRLSWAASGRIIKYNAMGWYRQAPGKERELVAVITSGGSTYYAYSVKGRFTISRDNAKNTVYLQMNSLKPEDTAVYYCAAGFGDGPGNGYYSRYSWDDDYWGQGTQVTVSS
[out] low polyreactivity

[in] Value lookup for polyreactivity (PSR sort gate); key = QVQLVESGGGLVQAGGSLRLSCAASGIILGYYAMGWYRQAPGKERELVAAINWSGASTYYADSVKGRFTISRDNAKNTVYLQMNSLKPEDTAVYYCARRAYGTRVLFDYWGQGTQVTVSS
[out] high polyreactivity

[in] Value lookup for polyreactivity (PSR sort gate); key = QVQLVESGGGLVQAGGSLRLICAASGYTFAFYAMGWYRQAPGKEREFVASINWNGSSTYADSVKGRFTISRDNAKNTVYLQMNSLKPEDTAVYYCNADYNRNSVQFSLYDYWGQGTQVTVSS
[out] low polyreactivity

[in] Value lookup for polyreactivity (PSR sort gate); key = QVQLVESGGGLVQAGGSLRLSCSASGSIFGSYAMGWYRQAPGKERELVARINTRGGSTYYADSVKGRFTISRDNAKYTVYIQMNSLKPADTAVYYCAKERRASVVRYDYWGQGTQVTVSS
[out] low polyreactivity

[in] Value lookup for polyreactivity (PSR sort gate); key = QVQLVESGGCLVQAGGSLRLSCAASGLTFPKYSMGWYRQAPGKERELVARISYSGASTYYADSVKGRFTISRDNEKNTVYLHMIILKPEDTAVYYCDARIYRVYYVNFAPYYYWGQGTQVTVSS
[out] high polyreactivity

* * *

assay: yeast display, Sf9 membrane polyspecificity reagent, FACS + sequencing; frameworks hold sequencing errors
PROPERTY_MEASURED: polyreactivity (PSR sort gate)

Use the examples below as a reference point.
QVHLVESGGGLVQAGGSLRLSCAASGSIFYDYAMVWYIQAPGKERELVAAINSGDSTYYADSVKGRFTISRDNAKNTVYLQMNSLKPEDTAVYFCAATYFSPYIEYDYWGQGTQVTVSS ... low polyreactivity
QVQLVESGGGLVQAGGSLRLSCAASGFTFYRYTMGWYRQAPGKERELVAAISRRGGRTYYADSVKGRFTISRDYAKNSVYLQMNSLKPEDTAVYYCAADSAAYVFGEAYDYWGKGTQVTVSS ... high polyreactivity
QDQLVESGGGLVQAGGSLRLSCAASGRTFSRYTMGWYRQAPGKERELVAAISKRGGSTYYADSVKGRLTISRDNAKNTVYLQMNSLKPADTAVYYCNAYGLVGLDGVKMYYWGQGTQVTVSS ... high polyreactivity
QVQLVESGAGLVQAGVSLGLSCAASGFTFVRDAMGWYRQAPGKEREFVASISARGGNTFYADSVQGRFSISRDNAKNTVYLKMNSLKPEDTAVYYCAKRGPYGTGYGYWGQGTQVTVSS ... high polyreactivity

For the next question, use this sequence.
[in] Value lookup for polyreactivity (PSR sort gate); key = QVQLVESGGGLVQEGGSLRLSCAASGRNFDVYAMGWYRQAPGKERELVAAITWDGGSTYYADSVKGRFTISRDNAKNSVYLQMNSEKPEDKAVYYCAAEPVYTQRKGYDYWGQGTQVTVSS
[out] low polyreactivity
